Origin of values: patent US20240382605A1

Listed next: entries and their corresponding Ki.
# targetEntity: T1, hCD71-Nluc fusion protein (human, UniProt P02786 1-760)
# T1 construct: whole, on cells; Used as crude membrane fractions of HEK293 cells stably expressing hCD71-Nluc; also called human transferrin receptor, CD71, fused to NanoLuc; not shown: NanoLuc (ProMega) luciferase joined through its N-terminal Val
# T1 sequence (P02786 other isoform, or with tags, fused parts or gaps): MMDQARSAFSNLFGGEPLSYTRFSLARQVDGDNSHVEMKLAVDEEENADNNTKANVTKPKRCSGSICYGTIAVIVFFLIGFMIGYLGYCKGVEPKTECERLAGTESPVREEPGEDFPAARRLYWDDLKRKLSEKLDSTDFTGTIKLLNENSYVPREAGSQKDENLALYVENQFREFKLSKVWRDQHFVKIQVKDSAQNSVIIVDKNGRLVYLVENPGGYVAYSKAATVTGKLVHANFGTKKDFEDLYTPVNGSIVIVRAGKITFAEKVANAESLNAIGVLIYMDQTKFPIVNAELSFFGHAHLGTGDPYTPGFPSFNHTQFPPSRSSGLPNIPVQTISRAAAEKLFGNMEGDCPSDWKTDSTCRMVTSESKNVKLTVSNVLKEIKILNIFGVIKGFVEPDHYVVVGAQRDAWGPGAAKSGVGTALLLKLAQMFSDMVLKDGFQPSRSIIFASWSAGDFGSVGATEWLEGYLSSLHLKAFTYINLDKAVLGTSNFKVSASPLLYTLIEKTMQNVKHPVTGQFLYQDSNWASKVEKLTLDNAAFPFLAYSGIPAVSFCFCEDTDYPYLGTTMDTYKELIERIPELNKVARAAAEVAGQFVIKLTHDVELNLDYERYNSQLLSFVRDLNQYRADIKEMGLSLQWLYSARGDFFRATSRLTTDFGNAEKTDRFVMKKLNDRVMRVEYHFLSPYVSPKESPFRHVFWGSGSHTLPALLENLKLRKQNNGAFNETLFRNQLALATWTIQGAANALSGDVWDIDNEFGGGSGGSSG
# assayExplanation: nanoBRET competition, tracer BCY17871-1598988 60 nM, HEK293 hCD71-Nluc membranes
Starred links: 1 amine or outer side, 2 acyl side, 3 side chain; linkers in the order of their positions; H or OH if unused. Positions of bridges follow the written chain, without caps; N, C: chain ends. Primed or numbered codes have the meaning given here. *: point of attachment. azidopropyl = N-terminal modification AzPro, [N-]=[N+]=NCCC*; TATB = O=C(C[*:1])N1CN(C(=O)C[*:2])CN(C(=O)C[*:3])C1; oligonucleotide 1590463 = not defined here; azidopropyl″ = [N-]=[N+]=NCCC*
Write the value in nM as a bare number.

>  <binder>
CSPDAHLGCISYCX (not fully specified; as printed CSPDAHLGCISYC[K(N3)]: N-terminal acetyl; C-terminal amide; three Cys bound to TATB scaffold; [K(N3)] 6-azido lysine at 14 joined via BCN linker to oligonucleotide 1590463, also called Compound No. 1590463 conjugated to BCY17868) [1590463-BCY17868]

>  <value>
20

$$$$
>  <binder>
{oligonucleotide 1590463-BCN linker-azidopropyl″}-CSPDAHLGCISYC-NH2 (linker 1-9-13 via TATB; reading uncertain, also called Compound No. 1590463 conjugated to BCY17869) [1590463-BCY17869]

>  <value>
55

$$$$
>  <binder>
NWNCSPDAHLGCISYCX (not fully specified; as printed NWNCSPDAHLGCISYC[K(N3)]: N-terminal acetyl; C-terminal amide; three Cys bound to TATB scaffold; [K(N3)] 6-azido lysine at 17 joined via BCN linker to oligonucleotide 1590463, also called Compound No. 1590463 conjugated to BCY17871) [1590463-BCY17871]

>  <value>
6

$$$$
>  <binder>
CSXDAHLGCISYCX (not fully specified; as printed CS[Aze]DAHLGCISYC[K(N3)]: N-terminal acetyl; C-terminal amide; three Cys bound to TATB scaffold; [Aze] azetidine at 3; [K(N3)] 6-azido lysine at 14 joined via BCN linker to oligonucleotide 1590463, also called Compound No. 1590463 conjugated to BCY17879) [1590463-BCY17879]

>  <value>
25

$$$$
>  <binder>
CSXDAHLGCISYCX (not fully specified; as printed CS[HyP]DAHLGCISYC[K(N3)]: N-terminal acetyl; C-terminal amide; three Cys bound to TATB scaffold; [HyP] 4-trans-hydroxy-L-proline at 3; [K(N3)] 6-azido lysine at 14 joined via BCN linker to oligonucleotide 1590463, also called Compound No. 1590463 conjugated to BCY17877) [1590463-BCY17877]

>  <value>
18

$$$$

Exercise: Tell me its Ki given {oligonucleotide 1590463-BCN linker-azidopropyl}-CSPDAHLGCISYCEPW-NH2 (linker 1-9-13 via TATB; reading uncertain, also called Compound No. 1590463 conjugated to BCY17874) [1590463-BCY17874] as the entry.
Key: 10
